# koff per entry
target of assay: T1, human PD-1 ECD (Acro Biosystems cat. no. PD1-H52219) (human, UniProt Q15116 25-170)
T1 construct: extracellular domain; Bought monomeric ECD; also called monomeric PD-1 antigen
T1 sequence (Q15116 25-170, one chain of several): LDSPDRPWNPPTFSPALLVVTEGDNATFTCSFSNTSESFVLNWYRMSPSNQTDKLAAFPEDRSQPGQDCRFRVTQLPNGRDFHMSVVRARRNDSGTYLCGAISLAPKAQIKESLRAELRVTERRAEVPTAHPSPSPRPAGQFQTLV
assay text: SPR, antibody on sensor, monomeric PD-1 ECD in solution
measured property: koff (s⁻¹)

[
  {
    "binder": "antibody 18325 (antibody, V domains shown, Tested as human IgG1 L234A/L235A (LALA), kappa) VH: QVQLQQSGGGLVQPGGSLRLSCAASGFTFSSHVMNWVRQAPGKGLEWVATISGSGVDTYYADSVKGRFTISRGNSKNMLYLQMNSLRAEDTAVYYCAKWGSWSAGAFDIWGQGTMVTVSS VL: EIVLTQSPSSVSASVGDRVTITCRASQGISSWLAWYQQKPGKAPKLLIYAASSLQSGVPSRFSGSGSGTDFTLTISSLQPEDFATYYCQQANSFPWTFGQGTKVEIKR",
    "measured property": "koff",
    "readout unit": "s⁻¹",
    "observed value": 0.00011
  },
  {
    "binder": "antibody 18413 (antibody, V domains shown, Tested as human IgG1 L234A/L235A (LALA), kappa) VH: EVQLVESGGGLVQPGGSLRLSCAASGFTFSSFVMSWVRQAPGKGLEWLSTISGGGGSTYYADSVKGRFTISRDNSKNTLYLQMNSLRAEDTAVYYCAKDWDLYYFDYWGQGTLVTVSS VL: DIQLTQSPSSVPASVGDRVTITCRASQGISNWLAWYQQKPGKAPKLLIYAASSLQSGVPSRFSGSGSGTDFTLTISSLQPEDFATYYCQQANSFPLTFGGGTKVEIKR",
    "measured property": "koff",
    "readout unit": "s⁻¹",
    "observed value": 0.00011
  },
  {
    "binder": "antibody 18400 (antibody, V domains shown, Tested as human IgG1 L234A/L235A (LALA), kappa) VH: QLQLQESGPGLVKPSGTLSLTCAVSGGSISSSNWWSWVRQPPKKGLEWVGEIFHDGTTSYNPSLKSRVTMSVDKSKNQFSLKLSSVTAADTAVYYCARGNWGSGALDIWGPGTMVTVSS VL: EIVMTQSPSPLSASVGDRVTITCRASQGIRNDLGWYQQKPGKAPKLLIYAASSLQSGVPSRFSGSGSGTDFTLTISSLQPEDFATYYCLQDYNYPRTFGQGTKVEIKR",
    "measured property": "koff",
    "readout unit": "s⁻¹",
    "observed value": 0.00035
  }
]
